src = paper PMC10932284

Could you please report measured Ki for the items listed next?
Molecular target: MtCA1 (Mycobacterium tuberculosis)
Construct: made in house
Experiment: biochemical
Conditions: stopped-flow CO2 hydrase assay, mean from three assays; read-out: Ki MtCA1
Answer format: numeric, µM implied, no suffix.

Fill in the recorded Ki for this compound, with MtCA1 (Mycobacterium tuberculosis) as test system: CN1C(=O)NS(=O)(=O)c2cc(Cl)ccc21
1.18

Query Ki on MtCA1 (Mycobacterium tuberculosis) for O=C1Nc2c(C(=O)O)cccc2S(=O)(=O)N1
3.28

Lab note: need Ki with MtCA1 (Mycobacterium tuberculosis) for entry O=C1Nc2ccccc2S(=O)(=O)N1 , please look it up.
1.68

Identify the measured Ki of O=C1Nc2ccc(F)cc2S(=O)(=O)N1 for MtCA1 (Mycobacterium tuberculosis).
1.83

* * *

property: pKi
The meaning of pKi here: minus log10 of the concentration in molar units.

Requested read-out pKi, target or system UniProtKB P96878, entry O=C1Nc2ccc(Cl)cc2S(=O)(=O)N1
Sequence (P96878 550-764 limits assumed): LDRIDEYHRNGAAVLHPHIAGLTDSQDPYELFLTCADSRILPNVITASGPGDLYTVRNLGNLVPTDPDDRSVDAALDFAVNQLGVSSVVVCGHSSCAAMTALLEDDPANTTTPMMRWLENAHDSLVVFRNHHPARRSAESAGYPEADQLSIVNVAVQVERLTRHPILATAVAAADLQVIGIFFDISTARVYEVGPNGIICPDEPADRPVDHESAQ
7.40

Hello, I am looking for reported pKi with UniProtKB P96878 for O=C1Nc2c(C(=O)O)cccc2S(=O)(=O)N1 . Could you help?
7.18

Record lookup: for UniProtKB P96878, what pKi belongs to O=C1Nc2c(F)cccc2S(=O)(=O)N1 ?
7.79

What reported pKi corresponds to O=C1NS(=O)(=O)c2cccc3c2N1CC3 on UniProtKB P96878?
7.12

# returns recorded pKi (system: UniProtKB P96878) for Cc1cc(C)c2c(c1)S(=O)(=O)NC(=O)N2
7.82

Item Cc1cc(C)c2c(c1)NC(=O)NS2(=O)=O with UniProtKB P96878 - pKi?
5.65

Please provide the recorded pKi for CN1C(=O)NS(=O)(=O)c2ccccc21 , tested on UniProtKB P96878.
7.49

GET /values?readout=pKi&system=UniProtKB P96878&item= Cc1ccc2c(c1)S(=O)(=O)NC(=O)N2
7.73

Record lookup: for UniProtKB P96878, what pKi belongs to O=C1Nc2c(Br)cccc2S(=O)(=O)N1 ?
7.08

Find pKi (UniProtKB P96878) for the entry O=C1Nc2ccccc2S(=O)(=O)N1
7.54

What reported pKi corresponds to Cc1cccc2c1NC(=O)NS2(=O)=O on UniProtKB P96878?
7.67

* * *

Would you mind telling me the reported pKi of each entry?
Target: MtCA1 (Mycobacterium tuberculosis, UniProt P9WPJ7)
Construct: made in house
Sequence (P9WPJ7 whole entry): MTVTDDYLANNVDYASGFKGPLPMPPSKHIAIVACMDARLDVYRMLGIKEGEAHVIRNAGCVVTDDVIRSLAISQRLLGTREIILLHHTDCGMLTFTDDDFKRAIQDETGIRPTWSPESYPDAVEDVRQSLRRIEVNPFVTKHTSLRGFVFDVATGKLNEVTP
Assay: biochemical
Settings: stopped-flow CO2 hydrase assay, mean from three assays; read-out: Ki MtCA1
To interpret pKi, take it as minus log10 of a concentration measured in moles per litre.

Return reported pKi; argument: COc1ccc2c(c1)S(=O)(=O)NC(=O)N2 [2m]
5.56

pKi lookup needed for Cc1cc(C)c2c(c1)S(=O)(=O)NC(=O)N2 [2d] , thanks.
6.03

# lookup: pKi of CN1C(=O)NS(=O)(=O)c2ccccc21 [2o]
6.25

Fill in: pKi of O=C1NS(=O)(=O)c2cccc3c2N1CC3 [2q] is ___
6.05

Requested field: pKi. Item: O=C1Nc2ccc(Br)cc2S(=O)(=O)N1 [2l]
5.53

Query: pKi; subject: O=C1Nc2ccc(O)cc2S(=O)(=O)N1 [2t]
5.62
